// reported kon for each item listed
# TEST SYSTEM: T1, human IL-33 (R&D Systems, #3625-IL-010/CF) (human, UniProt O95760 112-270)
# T1 construct: Commercial recombinant protein; also called hIL-33; interleukin-33
# T1 sequence (looked up): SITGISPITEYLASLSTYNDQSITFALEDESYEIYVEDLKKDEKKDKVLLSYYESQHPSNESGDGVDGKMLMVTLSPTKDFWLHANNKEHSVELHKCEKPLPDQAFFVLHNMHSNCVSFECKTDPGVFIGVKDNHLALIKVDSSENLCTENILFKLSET
# ASSAY INFO: SPR 37C pH7.4, mAb captured
Answer format: numeric, M⁻¹ s⁻¹ implied, no suffix.

Completed entries (count: 2):
BINDER: H4H9659P (antibody, human IgG4, V domains shown, Human IgG4 Fc (H4H)) VH: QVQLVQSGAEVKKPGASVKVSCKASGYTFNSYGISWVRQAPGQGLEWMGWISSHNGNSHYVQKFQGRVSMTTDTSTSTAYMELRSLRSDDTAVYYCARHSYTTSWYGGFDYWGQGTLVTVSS VL: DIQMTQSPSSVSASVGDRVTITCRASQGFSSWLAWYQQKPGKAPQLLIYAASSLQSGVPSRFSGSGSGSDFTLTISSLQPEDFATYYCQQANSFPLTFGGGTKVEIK
UNITS OF MEASURE: M⁻¹ s⁻¹
RECORDED NUMBER: 707000
--
BINDER: H1M9566N (antibody, mouse IgG1, V domains shown, Human variable domains, mouse IgG1 Fc (H1M)) VH: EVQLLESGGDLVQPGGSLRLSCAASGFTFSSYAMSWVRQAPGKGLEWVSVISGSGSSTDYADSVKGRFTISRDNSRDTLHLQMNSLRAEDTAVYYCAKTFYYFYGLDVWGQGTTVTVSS VL: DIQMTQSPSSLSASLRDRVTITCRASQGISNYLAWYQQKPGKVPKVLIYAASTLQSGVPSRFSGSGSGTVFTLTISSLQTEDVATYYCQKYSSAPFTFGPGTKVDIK
UNITS OF MEASURE: M⁻¹ s⁻¹
RECORDED NUMBER: 166000

Challenge: kon lookup needed for H1M9568N (antibody, mouse IgG1, V domains shown, Human variable domains, mouse IgG1 Fc (H1M)) VH: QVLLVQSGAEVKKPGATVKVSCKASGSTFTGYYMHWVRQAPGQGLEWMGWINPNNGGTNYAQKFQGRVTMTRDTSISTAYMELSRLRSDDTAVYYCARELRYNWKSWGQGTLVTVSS VL: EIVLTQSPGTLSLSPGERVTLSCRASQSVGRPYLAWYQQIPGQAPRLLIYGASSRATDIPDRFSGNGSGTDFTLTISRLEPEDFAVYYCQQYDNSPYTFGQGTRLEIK , thanks.
Response given: 672000
